Data origin, for the record: PubChem BioAssay (NCI)

Test system: SF-295 CNS
Assay: NCI-60 one-dose screen, 48 h
Conditions: 10 µM
Method: Cells are grown in 96 well plates and exposed to the test compound for 48 hours. Compounds are tested at a single concentration, which is 10^-5 M for most compounds. The reported endpoint is percent growth (GI% or GIPRCNT), where numbers from 0 - 100% represent growth inhibition, and numbers from -100% - 0 represent cell death. For example, a value of 40 represents 60% growth inhibition. A value of 0 means no net growth occurred over the course of the experiment. […]
The panel holds about 83,000 compounds, 20% with a hit somewhere; the sample as a whole holds those more often. Active and inactive are the calls of the source. How the source made its calls: active means growth percent below 10; inactive means the rest.
Your response should consist of one outcome taken from 1 = active, -1 = inactive

O=C(/C=C/c1ccc(Cl)cc1)c1ccc(Br)cc1 :: -1
O=C(Nc1cccc(Cl)c1)OCC(COC(=O)Nc1cccc(Cl)c1)(COC(=O)Nc1cccc(Cl)c1)[N+](=O)[O-] :: -1
COc1cc(C2C(C#N)=C(c3c[nH]c4ccccc34)Nc3nc(N)[nH]c(=O)c32)cc(OC)c1OC (centres undefined) :: -1
c1ccc(CNc2nc(Nc3ccc(-c4nc5ccccc5[nH]4)cc3)c3cn[nH]c3n2)cc1 :: 1

In: What was the test verdict on COc1cccc(-c2nnc(COc3ccc(-c4nc5ccccc5[nH]4)cc3OC)o2)c1 ?
Out: -1

In: What was the test verdict on CCN(CC)c1ccc(/C=C/C2=[N+](C)c3ccccc3C2(C)C)c(C)c1 ?
Out: 1

In: What was the test verdict on O=C1CC[C@@H](C(=O)N[C@H]2CSSC[C@@H](C(=O)N/C=C/c3ccc(O)cc3)NC(=O)[C@H](Cc3ccccc3)NC(=O)[C@@H]3CCCN3C(=O)[C@@H]3CCCN3C2=O)N1 ?
Out: -1

In: What was the test verdict on CCCCCCCCCCCCc1ccc(C(=O)/C=C/C(=O)O)cc1 ?
Out: -1

In: What was the test verdict on COc1cc(CSc2nc3ccc(Cl)cc3c(=O)n2Cc2ccccc2)cc(OC)c1OC ?
Out: -1

----------
test system: SK-MEL-5 melanoma; assay: NCI-60 one-dose screen, 48 h (100 = growth as untreated, 0 = no growth, -100 = all killed); details: 10 µM
About 83,000 compounds went through this panel and 20% of them were active in at least one assay; those are over-represented in the sample as a whole.
parameter_measured: growth (%)
Hi! Could you send only the number? It should be in %, unit omitted.

Below, 2 molecules whose answers are already recorded.
COc1ccc(C2C=C(c3ccc(Cl)cc3)N=C3SC=CN32)c(Br)c1 (stereo not drawn) :: 88.6
Cc1ccc(/C(CS(=O)(=O)c2ccc(C)cc2)=N\O)cc1 :: 98.9

In: Consider the molecule shown here: CCCCC(CC#N)(CCC)CCC What is its recorded growth?
Out: 106

In: Consider the molecule shown here: CCOC(=O)c1ccc(NC(=O)Nc2nncs2)cc1 What is its recorded growth?
Out: -21.2

In: Consider the molecule shown here: Cc1cc2cc3c(=O)[nH]c(=O)cc-3n(CC(O)C(O)C(O)CO)c2cc1C (stereo not drawn) What is its recorded growth?
Out: 110

In: Consider the molecule shown here: C=CCOc1ccc2c(c1)CC=C1[C@@H]2CC[C@]2(C)C(=O)/C(=N/O)C[C@@H]12 What is its recorded growth?
Out: 84.7

In: Consider the molecule shown here: CN(C)CCCN(Cc1ccccc1O)C(=S)Nc1ccc(Cl)cc1 What is its recorded growth?
Out: 91.3

In: Consider the molecule shown here: COc1ccc(COC(=O)CC(C)C)cc1 What is its recorded growth?
Out: 93.4
